Target: human recombinant beta-2 adrenoreceptors (Homo sapiens, UniProt P07550)
Sequence (P07550 whole entry): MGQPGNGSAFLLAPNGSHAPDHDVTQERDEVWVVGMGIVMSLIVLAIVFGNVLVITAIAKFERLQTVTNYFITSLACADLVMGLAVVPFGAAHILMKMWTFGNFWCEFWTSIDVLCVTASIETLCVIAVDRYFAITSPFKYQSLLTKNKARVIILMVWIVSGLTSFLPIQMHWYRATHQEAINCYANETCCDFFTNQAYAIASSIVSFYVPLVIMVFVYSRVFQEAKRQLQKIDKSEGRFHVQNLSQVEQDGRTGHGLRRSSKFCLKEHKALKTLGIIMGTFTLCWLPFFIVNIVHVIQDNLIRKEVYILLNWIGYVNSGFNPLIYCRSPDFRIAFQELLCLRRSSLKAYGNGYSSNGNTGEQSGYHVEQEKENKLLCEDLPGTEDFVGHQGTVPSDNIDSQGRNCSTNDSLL
Assay: Functional agonism of human recombinant beta-2 adrenoreceptors expressed in CHO cells (cAMP, HTRF)
Conditions: cAMP elevation, 30 min
pEC50: −log10 of the molar value.
test.readout: pEC50

CCc1nc2c(cnn2CC)c(NC2CCOCC2)c1CNC(=O)Nc1ccc(C#CCCCNC[C@H](O)c2ccc(O)c3c2OCC(=O)N3)cc1 [Example 15]	> 7.00

What value of pEC50 has been recorded for this entry: CCc1nc2c(cnn2CC)c(NC2CCOCC2)c1CNC(=O)c1ccc(CNC[C@H](O)c2ccc(O)c(CO)c2)cc1 [Example 8]
< 6.52

Proceed to CCc1nc2c(cnn2CC)c(NC2CCOCC2)c1CNC(=O)Nc1ccc(C#CCCCNC[C@H](O)c2ccc(O)c3[nH]c(=O)ccc23)cc1 [Example 11]
> 7.00

Next up: CCc1nc2c(cnn2CC)c(NC2CCOCC2)c1CNC(=O)c1cccc(CC(C)NC[C@H](O)c2ccc(O)c(CO)c2)c1 (stereo partly drawn) [Example 2]
> 7.00

Try CCc1nc2c(cnn2CC)c(NC2CCOCC2)c1CNC(=O)c1cccc(CNC[C@H](O)c2ccc(O)c3[nH]c(=O)ccc23)c1 [Example 5] next.
> 7.00

Would you mind doing CCc1nc2c(cnn2CC)c(NC2CCOCC2)c1CNC(=O)Nc1ccc(CCCCCNC[C@H](O)c2ccc(O)c3[nH]c(=O)ccc23)cc1 [Example 12] as well?
> 7.00

Another: CCc1nc2c(cnn2CC)c(NC2CCOCC2)c1CNC(=O)CCCCCCCNC[C@H](O)c1ccc(O)c2[nH]c(=O)ccc12 [Example 10]
> 7.00

Then what about the compound CCc1nc2c(cnn2CC)c(NC2CCOCC2)c1CNC(=O)c1cccc(CC(C)(C)NC[C@H](O)c2ccc(O)c(CO)c2)c1 [Example 3] ?
> 6.52

Repeat with CCc1nc2c(cnn2CC)c(NC2CCOCC2)c1CNC(=O)c1cccc(CC(C)(C)NC[C@H](O)c2ccc(O)c3[nH]c(=O)ccc23)c1 [Example 4]
> 7.00

---

Molecular target: human recombinant beta-2 adrenoreceptors (Homo sapiens, UniProt P07550)
Experiment: Functional agonism of human recombinant beta-2 adrenoreceptors expressed in CHO cells (cAMP, HTRF)
Settings: cAMP elevation, 30 min
pEC50: −log10 of the molar value.
# key: entry, value: pEC50

Example entries begin here.
CCc1nc2c(cnn2CC)c(NC2CCOCC2)c1CNC(=O)c1cccc(CC(C)NC[C@H](O)c2ccc(O)c3[nH]c(=O)ccc23)c1 (stereo partly drawn)	> 7.00
CCc1nc2c(cnn2CC)c(NC2CCOCC2)c1CNC(=O)c1ccc(CNC[C@H](O)c2ccc(O)c3[nH]c(=O)ccc23)cc1	> 7.00

Look at this compound and give its reported pEC50. `CCc1nc2c(cnn2CC)c(NC2CCOCC2)c1CNC(=O)c1ccc(CCCCCNC[C@H](O)c2ccc(O)c3[nH]c(=O)ccc23)cc1`
> 7.00

Request: `CCc1nc2c(cnn2CC)c(NC2CCOCC2)c1CNC(=O)Nc1ccc(CCCCOCCCCCCNC[C@H](O)c2ccc(O)c3[nH]c(=O)ccc23)cc1`
> 7.00

One more compound: `CCc1nc2c(cnn2CC)c(NC2CCOCC2)c1CNc1c(Nc2ccc(CCCCCNC[C@H](O)c3ccc(O)c4[nH]c(=O)ccc34)cc2)c(=O)c1=O`
> 7.00

Input `CCc1nc2c(cnn2CC)c(NC2CCOCC2)c1CNC(=O)c1cccc(CNC[C@H](O)c2ccc(O)c(CO)c2)c1`
< 6.52
